Target: HCV-NS5BΔ21 RdRp genotype 1b (strain J4) (Hepatitis C virus genotype 1b)
Assay: biochemical
Set-up: His6 (N); made in house; host or cells: Escherichia coli C41(DE3)
Conditions: 20 μM compound
Documented inhibition at 20 µM across a set of compounds
Give just the numeric value; % need not be written.

Some compounds with known inhibition at 20 µM results, for comparison:
INSERT INTO results (compound, quantity_name, units_symbol, value_measured) VALUES
  ('O=c1c(O)c(-c2ccccc2O)oc2cc(O)cc(O)c12', 'inhibition at 20 µM', '%', 70.5),
  ('O=c1c(O)c(-c2ccc(O)c(O)c2)oc2cc(O)ccc12', 'inhibition at 20 µM', '%', 65.8);

Entry O=c1cc(-c2ccccc2)oc2ccccc12 has what inhibition at 20 µM?
13.1

Entry O=c1cc(-c2ccccc2)oc2ccc(O)cc12 [6-Hydroxyflavone] has what inhibition at 20 µM?
18.5

Entry O=c1cc(-c2ccc(O)cc2)oc2cc(O)cc(O)c12 has what inhibition at 20 µM?
62.5

Entry O=c1c(O)c(-c2ccc(O)cc2O)oc2cc(O)cc(O)c12 has what inhibition at 20 µM?
69.3

====

Biological target: HCV-NS5BΔ21 RdRp genotype 1b (strain J4) (Hepatitis C virus genotype 1b, UniProt O92972)
Assay: biochemical
Parameters: His6 (N); made in house; host or cells: Escherichia coli C41(DE3)
Details: genotype 1b (strain J4); read-out: IC50 HCV-NS5BΔ21 polymerase activity
quantity-name: pIC50
// returns pIC50 (minus log10 of molar concentration), number only

Entry O=c1c(O)c(-c2ccc(O)c(O)c2)oc2cc(O)c(O)c(O)c12 has what pIC50?
5.37

====

Target: HCV-NS5BΔ21 RdRp genotype 1b (strain J4) (Hepatitis C virus genotype 1b, UniProt O92972)
Assay: biochemical
Settings: range over three genotypes; read-out: IC50 in the enzyme assay, genotypes 1b, 1a and 2a
pIC50: −log10 of the molar value.
quantity-name: pIC50

Entry O=c1c(O)c(-c2ccc(O)c(O)c2)oc2cc(O)c(O)c(O)c12 [Quercetagetin] has what pIC50?
5.21 to 5.55

====

Target: HCV-NS5BΔ21 RdRp genotype 1b (strain J4) (Hepatitis C virus genotype 1b, UniProt O92972)
Assay: biochemical
Set-up: His6 (N); made in house; host or cells: Escherichia coli C41(DE3)
Settings: 20 μM compound; no treatment control slope 62.0
Classification field: yes = Slope of fluorescence increase at or over 50; no = Slope of fluorescence increase under 50.

Here are 3 molecules together with their reported answers.
INSERT INTO assay_data (molecule, class_label) VALUES
  ('O=c1cc(-c2ccc(O)cc2)oc2cc(O)c(O)c(O)c12 [Scutellarein]', 'no'),
  ('O=c1cc(-c2ccc(O)cc2)oc2cc(O)cc(O)c12 [Apigenin]', 'no'),
  ('O=c1c(O)c(-c2ccc(O)cc2)oc2cc(O)ccc12 [5-Deoxykampferol]', 'no');

Item O=c1cc(-c2ccccc2)oc2ccccc12 [Flavone] with Slope of fluorescence increase of 50 or above?
yes

Item O=c1c(-c2ccc(O)cc2)coc2cc(O)cc(O)c12 [Genistein] with Slope of fluorescence increase of 50 or above?
yes

Item O=c1cc(-c2cc(O)c(O)c(O)c2)oc2cc(O)cc(O)c12 [Tricetin] with Slope of fluorescence increase of 50 or above?
no

Item O=C1C[C@@H](c2ccc(O)cc2)Oc2cc(O)ccc21 [Liquiritigenin] with Slope of fluorescence increase of 50 or above?
yes

====

Tested on: genotype 2a infectious J6/JFH1 strain
Assay: J6/JFH1 infection in cell culture (HCVcc, Huh7.5 cells)
Type: cell-based
Details: Hepatitis C virus, Huh7.5, 72 h, read-out: EC50 J6/JFH1 replication
quantity-name: EC50 (µM)
Give just the numeric value; µM need not be written.

Entry O=c1c(O)c(-c2ccc(O)c(O)c2)oc2cc(O)c(O)c(O)c12 has what EC50?
40.2

====

Target: HCV-NS5BΔ21 RdRp genotype 2a (strain JFH1) (Hepatitis C virus genotype 2a, UniProt Q99IB8)
Construct: His6 (N)
Assay: cell-free HCV-NS5BΔ21 polymerase assay, genotype 2a (JFH1)
quantity-name: pIC50
// returns pIC50 (minus log10 of molar concentration), number only

Entry O=c1c(O)c(-c2ccc(O)c(O)c2)oc2cc(O)c(O)c(O)c12 has what pIC50?
5.21

====

Molecular target: HCV-NS5BΔ21 RdRp genotype 1b (strain J4) (Hepatitis C virus genotype 1b)
Experiment: biochemical
Design: His6 (N); made in house; host or cells: Escherichia coli C41(DE3)
Details: 20 μM compound
Experimental: The HCV RdRps (NS5B protein) from reference strains H77 (genotype 1a), J4 (genotype 1b) and JFH1 (genotype 2a), truncated of their 21 C-terminal amino acids to ensure solubility (NS5BΔ21) and carrying a hexahistidine tag (His6-Tag) at their N-terminus, were expressed in Escherichia coli C41(DE3) and purified as previously described ([20]). Briefly, cultures were grown at 37°C for ∼1 h and induced with 1 mM isopropyl β-D-thiogalactoside for 4 h at 37°C. […]
quantity-name: % HCV-NS5BΔ21 inhibition (%)
Give just the numeric value; % need not be written.

INSERT INTO assay_data (compound, value_measured) VALUES
  ('O=c1cc(-c2ccccc2)oc2c(O)c(O)ccc12 [7.8 Dihydroxyflavone]', 30.8),
  ('COc1cc(OC)c2c(=O)c(OC)c(-c3ccc(OC)c(OC)c3)oc2c1 [Quercetin 3.5.7.3’.4’ pentamethylether]', 4.0),
  ('Oc1cc(O)c2c(c1)O[C@H](c1ccc(O)c(O)c1)[C@@H](O)C2 (racemic) [DL-Catechin]', 17.7),
  ('O=c1cc(-c2ccc(O)cc2)oc2cc(O)ccc12 [7.4’-Dihydroxyflavone]', 25.7),
  ('O=c1cc(-c2ccccc2)oc2c(O)c(O)cc(O)c12 [5.7.8-Trihydroxyflavone]', 47.4),
  ('O=c1cc(-c2ccc(O)c(O)c2)oc2ccccc12 [3’.4’-Dihydroxyflavone]', 45.4),
  ('O=C1c2ccc(O)cc2OC(c2cc(O)c(O)c(O)c2)C1O (stereo in doubt) [Dihydrorobinetin]', 11.0),
  ('O=c1c(O)c(-c2ccc(O)c(O)c2)oc2cc(O[C@@H]3O[C@H](CO)[C@@H](O)[C@H](O)[C@H]3O)c(O)c(O)c12 [Quercetagetin-7-O glucoside]', 42.5);

Turning now to a further compound:
State its % HCV-NS5BΔ21 inhibition on HCV-NS5BΔ21 RdRp genotype 1b (strain J4) (Hepatitis C virus genotype 1b): O=C1C[C@@H](c2ccc(O)cc2)Oc2cc(O)ccc21 [Liquiritigenin]
6.1

====

Documented inhibition at 20 µM across a set of compounds
Biological target: HCV-NS5BΔ21 RdRp genotype 1b (strain J4) (Hepatitis C virus genotype 1b)
Assay: biochemical
Design: His6 (N); made in house; host or cells: Escherichia coli C41(DE3)
Details: 20 μM compound
Give just the numeric value; % need not be written.

Some compounds with known inhibition at 20 µM results, for comparison:
INSERT INTO assay_data (compound, value_measured) VALUES
  ('O=c1cc(-c2ccccc2)oc2cc(O)c(O)c(O)c12', 61.8),
  ('O=c1cc(-c2ccccc2)oc2cccc(O)c12 [5-hydroxyflavone]', 14.5),
  ('O=c1cc(-c2ccc(O)cc2)oc2cc(O)c(O)c(O)c12', 67.4);

Entry O=C1CC(c2ccccc2)Oc2ccc(O)cc21 (stereo not shown) [6-Hydroxyflavanone] has what inhibition at 20 µM?
4.1

====

Molecular target: HCV-NS5BΔ21 RdRp genotype 1b (strain J4) (Hepatitis C virus genotype 1b, UniProt O92972)
Assay: biochemical
Design: His6 (N); made in house; host or cells: Escherichia coli C41(DE3)
Details: 20 μM compound; no treatment control slope 62.0
quantity-name: Slope of fluorescence increase
Give the figure only, with no unit attached.

Some compounds with known Slope of fluorescence increase results, for comparison:
INSERT INTO results (compound, quantity_name, value_measured) VALUES
  ('O=c1c(O)c(-c2ccc(O)cc2O)oc2cc(O)cc(O)c12', 'Slope of fluorescence increase', 19.0),
  ('O=c1c(O)c(-c2cc(O)c(O)c(O)c2)oc2cc(O)ccc12', 'Slope of fluorescence increase', 27.4),
  ('O=C1CC(c2ccccc2)Oc2ccc(O)cc21 (stereo not drawn) [6-Hydroxyflavanone]', 'Slope of fluorescence increase', 59.5),
  ('O=c1cc(-c2ccc(O)c(O)c2)oc2cc(O)cc(O)c12', 'Slope of fluorescence increase', 11.4),
  ('O=c1cc(-c2ccccc2)oc2cc(O)c(O)c(O)c12', 'Slope of fluorescence increase', 23.7),
  ('COc1cc(OC)c2c(=O)c(OC)c(-c3ccc(OC)c(OC)c3)oc2c1', 'Slope of fluorescence increase', 59.6);

Entry O=c1c(O)c(-c2ccccc2)oc2cc(O)ccc12 [7-hydroxyflavonol] has what Slope of fluorescence increase?
17.8

Entry O=C1c2ccc(O)cc2OC(c2cc(O)c(O)c(O)c2)C1O (stereo in doubt) [Dihydrorobinetin] has what Slope of fluorescence increase?
55.2

Entry O=C1c2ccc(O)cc2O[C@H](c2ccc(O)c(O)c2)[C@H]1O has what Slope of fluorescence increase?
53.0
